Values were extracted from patent EP4691489A1.

tested-on: SSTR 5 (Homo sapiens)
Sequence (P35346 whole entry): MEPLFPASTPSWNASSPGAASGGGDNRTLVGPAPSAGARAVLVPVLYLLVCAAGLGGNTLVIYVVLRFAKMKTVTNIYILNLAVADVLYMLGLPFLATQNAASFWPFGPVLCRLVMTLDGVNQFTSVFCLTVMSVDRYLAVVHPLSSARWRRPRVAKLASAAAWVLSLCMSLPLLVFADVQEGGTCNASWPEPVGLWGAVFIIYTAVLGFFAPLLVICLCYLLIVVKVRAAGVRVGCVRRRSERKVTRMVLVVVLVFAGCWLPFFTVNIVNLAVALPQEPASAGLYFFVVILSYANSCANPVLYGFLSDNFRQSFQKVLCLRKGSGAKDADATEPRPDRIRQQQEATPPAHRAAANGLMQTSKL
experiment-description: human SSTR5 antagonist activity using intracellular cAMP concentration as an indicator (HTRF)
Format: cell-based
Design: expressed in transfected cells
condition-label: 1 µM test compound; CHO (dhfr-) cells expressing human SSTR5; 0.1 nM somatostatin 28, 0.3 µM forskolin; read-out: inhibitory rate (%) against SSTR5 at 1 µM
observable: inhibition at 1 µM
Returns: string containing the number followed by the unit.

// known answers, use as guide
* CCCc1nc2c(cc1C(=O)O)C(=O)N(C1CCN(Cc3cc(C4CC4)c(-c4ccc(F)cc4)cc3OCC)CC1)CC2 [test compound 1] | 87%
* Cc1c(C(=O)O)ccn(C2CCN(Cc3cc(C4CC4)c(-c4ccc(F)cc4)c(F)c3OC(C)C)CC2)c1=O [test compound 6] | 99%
* CCOc1c(CN2CCC(N3CCc4nc(CC)c(C(=O)O)cc4C3=O)CC2)cc(C2CC2)c(-c2ccc(F)cc2)c1F [test compound 4] | 95%
* CCOc1c(CN2CCC(n3ccc(C(=O)O)c(CC)c3=O)CC2)cc(C2CC2)c(-c2ccc(F)cc2)c1F [test compound 5] | 87%
* CCCc1nc2c(cc1C(=O)O)C(=O)N(C1CCN(Cc3cc(C4CC4)c(-c4ccc(F)cc4F)cc3OCC)CC1)CC2 [test compound 3] | 125%

Answer with reported inhibition at 1 µM of CCCc1nc2c(cc1C(=O)O)C(=O)N(C1CCN(Cc3cc(C4CC4)c(-c4ccc(F)cc4)c(F)c3OCC)CC1)CC2 [test compound 2]
85%

Answer with reported inhibition at 1 µM of CCOc1c(CN2CCC(n3ccc(C(=O)O)c(C)c3=O)CC2)cc(C2CC2)c(-c2ccc(F)cc2)c1F [test compound 7]
87%
